Tested on: SK-MEL-28
Test Protocol: NCI tumour cell line growth inhibition, 48 h
Active and inactive are the calls of the source. Cut-off read from the data, not from the text of the source: active = GI50 up to about 1.1 µM and inactive = higher.
Measured Attribute: GI50

| Compound | Measured Attribute | Endpoint Value |
| --- | --- | --- |
| CN(CCN(C)C(=O)CCn1ccc(=O)[nH]c1=O)C(=O)CCn1ccc(=O)[nH]c1=O | GI50 | > 100 µM (inactive) |
| N#CC1=C(S)N(C2OC(CO)C(O)C(O)C2O)C(c2ccccc2)=CC1c1ccccc1 (stereo not drawn) | GI50 | 45 µM (inactive) |

Here are 3 compounds. What values of GI50 were reported for them?
1. COc1ccc(CSc2ccccc2Cn2cccc2)cc1OC
2. O=C1OC(c2ccccc2)=N/C1=C/NC(Cc1ccc(O)cc1)C(=O)O (stereo not drawn)
3. FC(F)(F)c1ccccc1N1CCN(c2nc(-c3cccs3)nc3ccc(Br)cc23)CC1

["> 100 µM (inactive)", "> 100 µM (inactive)", "35.8 µM (inactive)"]
